# Protocol text: Cytotoxicity against human HepG2(2.2.15) cells
# Assay type: cell-based
Property: CC50; scope: individual compounds
# number only, unit µM dropped from output

| Item smiles | Test value |
| --- | --- |
| C/C=C/C(=O)OCCc1c(-c2ccccc2Cl)c2cc(Cl)ccc2[nH]c1=O | 30 |

Request: Name the recorded CC50 for COc1ccccc1/C=C/C(=O)OCCc1c(-c2ccccc2Cl)c2cc(Cl)ccc2[nH]c1=O .
Response: 770

Request: Return reported CC50; argument: O=C(O)CCC(=O)OCCc1c(-c2ccccc2Cl)c2cc(Cl)ccc2[nH]c1=O
Response: 110

Request: Need CC50 of O=C(OCCc1c(-c2ccccc2Cl)c2cc(Cl)ccc2[nH]c1=O)c1cccnc1 , thanks.
Response: 170

Request: Would you kindly share the measured CC50 for CCC(=O)OCCc1c(-c2ccccc2Cl)c2cc(Cl)ccc2[nH]c1=O ?
Response: 95

Request: Item under review: O=C(/C=C/c1cccnc1)OCCc1c(-c2ccccc2Cl)c2cc(Cl)ccc2[nH]c1=O . Reported CC50?
Response: 39

Request: Need CC50, item O=C(CN1C(=O)c2ccccc2C1=O)OCCc1c(-c2ccccc2Cl)c2cc(Cl)ccc2[nH]c1=O
Response: 960

Request: # input compound: O=C(CCOc1ccccc1)OCCc1c(-c2ccccc2Cl)c2cc(Cl)ccc2[nH]c1=O ; wanted: its CC50
Response: 46
